System: NCI-H460
protocol_summary: Cytotoxicity against human NCI-H460 cells assessed as cell viability at 500 nM after 48 hrs by MTT assay
Format: functional
condition_context: NCI-H460, 48 h, read-out: Activity
So basically every entry gets a class from its viability at 0.5 µM, ranges being low value: < 5%; medium value: ≥ 5% and < 6%; high value: ≥ 6%

For orientation, consider the following solved cases.
C[C@@H]1O[C@@H](O[C@H]2CC[C@@]3(C)[C@H](CC[C@@H]4[C@@H]3CC[C@]3(C)[C@@H](C5=CC(=O)OC5)CC[C@]43O)C2)CC[C@H]1O; low value
C[C@@H]1O[C@@H](O[C@H]2CC[C@@]3(C)[C@H](CC[C@@H]4[C@@H]3CC[C@]3(C)[C@@H](C5=CC(=O)OC5)CC[C@]43O)C2)[C@H](O)[C@H](O)[C@H]1O; medium value

QUERY: Where would CC[C@@H]1O[C@@H](O[C@H]2CC[C@@]3(C)[C@H](CC[C@@H]4[C@@H]3CC[C@]3(C)[C@@H](C5=CC(=O)OC5)CC[C@]43O)C2)CC[C@H]1O land among the classes by reported viability at 0.5 µM?
RESULT: medium value

QUERY: Here is the next compound: CC(C)[C@@H]1O[C@@H](O[C@H]2CC[C@@]3(C)[C@H](CC[C@@H]4[C@@H]3CC[C@]3(C)[C@@H](C5=CC(=O)OC5)CC[C@]43O)C2)CC[C@H]1O
RESULT: high value

QUERY: Here is the next compound: CC(C)C[C@@H]1O[C@@H](O[C@H]2CC[C@@]3(C)[C@H](CC[C@@H]4[C@@H]3CC[C@]3(C)[C@@H](C5=CC(=O)OC5)CC[C@]43O)C2)[C@H](O)[C@H](O)[C@H]1O
RESULT: high value

----------
Tested on: NCI-H460
protocol_summary: Cytotoxicity against human NCI-H460 cells assessed as cell death in serum free medium at 10 nM after 12 hrs by Hoechst 33342/propidium iodide staining based fluorescence microscopy
Format: functional
Exercise: state measured Activity for each of the compounds provided.
Numbers only, in %.

Examples with their reported Activity follow.
CC[C@@H]1O[C@@H](O[C@H]2CC[C@@]3(C)[C@H](CC[C@@H]4[C@@H]3CC[C@]3(C)[C@@H](C5=CC(=O)OC5)CC[C@]43O)C2)[C@H](O)[C@H](O)[C@H]1O; 15.02
CC(C)[C@@H]1O[C@@H](O[C@H]2CC[C@@]3(C)[C@H](CC[C@@H]4[C@@H]3CC[C@]3(C)[C@@H](C5=CC(=O)OC5)CC[C@]43O)C2)CC[C@H]1O; 9.96

Let us move to another entry and its Activity.
QUERY: Requested read-out Activity, target or system NCI-H460, entry C[C@@H]1O[C@@H](O[C@H]2CC[C@@]3(C)[C@H](CC[C@@H]4[C@@H]3CC[C@]3(C)[C@@H](C5=CC(=O)OC5)CC[C@]43O)C2)CC[C@H]1O
RESULT: 18.12

----------
System: NCI-H460
protocol_summary: Cytotoxicity against human NCI-H460 cells assessed as cell death in serum free medium at 75 nM after 12 hrs by Hoechst 33342/propidium iodide staining based fluorescence microscopy
Assay type: functional
Activity of 30% or higher: fulfilled. Under 30%: not fulfilled.

For orientation, consider the following solved cases.
CC(C)[C@@H]1O[C@@H](O[C@H]2CC[C@@]3(C)[C@H](CC[C@@H]4[C@@H]3CC[C@]3(C)[C@@H](C5=CC(=O)OC5)CC[C@]43O)C2)CC[C@H]1O; not fulfilled
CC[C@@H]1O[C@@H](O[C@H]2CC[C@@]3(C)[C@H](CC[C@@H]4[C@@H]3CC[C@]3(C)[C@@H](C5=CC(=O)OC5)CC[C@]43O)C2)[C@H](O)[C@H](O)[C@H]1O; fulfilled
CCC[C@@H]1O[C@@H](O[C@H]2CC[C@@]3(C)[C@H](CC[C@@H]4[C@@H]3CC[C@]3(C)[C@@H](C5=CC(=O)OC5)CC[C@]43O)C2)[C@H](O)[C@H](O)[C@H]1O; fulfilled
C[C@@H]1O[C@@H](O[C@H]2CC[C@@]3(C)[C@H](CC[C@@H]4[C@@H]3CC[C@]3(C)[C@@H](C5=CC(=O)OC5)CC[C@]43O)C2)[C@H](O)[C@H](O)[C@H]1O; fulfilled
CC(C)C[C@@H]1O[C@@H](O[C@H]2CC[C@@]3(C)[C@H](CC[C@@H]4[C@@H]3CC[C@]3(C)[C@@H](C5=CC(=O)OC5)CC[C@]43O)C2)CC[C@H]1O; not fulfilled
CC(C)C[C@@H]1O[C@@H](O[C@H]2CC[C@@]3(C)[C@H](CC[C@@H]4[C@@H]3CC[C@]3(C)[C@@H](C5=CC(=O)OC5)CC[C@]43O)C2)[C@H](O)[C@H](O)[C@H]1O; not fulfilled
C[C@@H]1O[C@@H](O[C@H]2CC[C@@]3(C)[C@H](CC[C@@H]4[C@@H]3CC[C@]3(C)[C@@H](C5=CC(=O)OC5)CC[C@]43O)C2)CC[C@H]1O; fulfilled
CC(C)[C@@H]1O[C@@H](O[C@H]2CC[C@@]3(C)[C@H](CC[C@@H]4[C@@H]3CC[C@]3(C)[C@@H](C5=CC(=O)OC5)CC[C@]43O)C2)[C@H](O)[C@H](O)[C@H]1O; fulfilled

Next compound, please.
QUERY: Record CC[C@@H]1O[C@@H](O[C@H]2CC[C@@]3(C)[C@H](CC[C@@H]4[C@@H]3CC[C@]3(C)[C@@H](C5=CC(=O)OC5)CC[C@]43O)C2)CC[C@H]1O ; criterion: Activity no lower than 30%. Met?
RESULT: fulfilled

----------
Test system: NCI-H460
protocol_summary: Cytotoxicity against human NCI-H460 cells assessed as cell death in serum free medium at 100 nM after 12 hrs by Hoechst 33342/propidium iodide staining based fluorescence microscopy
Format: functional
quantity_kind: Activity

Examples with their reported Activity follow.
CC[C@@H]1O[C@@H](O[C@H]2CC[C@@]3(C)[C@H](CC[C@@H]4[C@@H]3CC[C@]3(C)[C@@H](C5=CC(=O)OC5)CC[C@]43O)C2)[C@H](O)[C@H](O)[C@H]1O; 80.15%
CC[C@@H]1O[C@@H](O[C@H]2CC[C@@]3(C)[C@H](CC[C@@H]4[C@@H]3CC[C@]3(C)[C@@H](C5=CC(=O)OC5)CC[C@]43O)C2)CC[C@H]1O; 69.05%
CC(C)[C@@H]1O[C@@H](O[C@H]2CC[C@@]3(C)[C@H](CC[C@@H]4[C@@H]3CC[C@]3(C)[C@@H](C5=CC(=O)OC5)CC[C@]43O)C2)CC[C@H]1O; 18.89%

Field: Activity. Fill in for each record below.
1. CC(C)C[C@@H]1O[C@@H](O[C@H]2CC[C@@]3(C)[C@H](CC[C@@H]4[C@@H]3CC[C@]3(C)[C@@H](C5=CC(=O)OC5)CC[C@]43O)C2)CC[C@H]1O
2. CC(C)[C@@H]1O[C@@H](O[C@H]2CC[C@@]3(C)[C@H](CC[C@@H]4[C@@H]3CC[C@]3(C)[C@@H](C5=CC(=O)OC5)CC[C@]43O)C2)[C@H](O)[C@H](O)[C@H]1O
3. C[C@@H]1O[C@@H](O[C@H]2CC[C@@]3(C)[C@H](CC[C@@H]4[C@@H]3CC[C@]3(C)[C@@H](C5=CC(=O)OC5)CC[C@]43O)C2)[C@H](O)[C@H](O)[C@H]1O
4. CC(C)C[C@@H]1O[C@@H](O[C@H]2CC[C@@]3(C)[C@H](CC[C@@H]4[C@@H]3CC[C@]3(C)[C@@H](C5=CC(=O)OC5)CC[C@]43O)C2)[C@H](O)[C@H](O)[C@H]1O
5. C[C@@H]1O[C@@H](O[C@H]2CC[C@@]3(C)[C@H](CC[C@@H]4[C@@H]3CC[C@]3(C)[C@@H](C5=CC(=O)OC5)CC[C@]43O)C2)CC[C@H]1O [RAMNODIGIN]

RESULT:
1. 17.69%
2. 45.94%
3. 89.5%
4. 36.73%
5. 98.61%

QUERY: // lookup Activity for CCC[C@@H]1O[C@@H](O[C@H]2CC[C@@]3(C)[C@H](CC[C@@H]4[C@@H]3CC[C@]3(C)[C@@H](C5=CC(=O)OC5)CC[C@]43O)C2)[C@H](O)[C@H](O)[C@H]1O
RESULT: 52.06%

----------
Exercise: state measured GI50 for each of the compounds provided.
System: NCI-H460
protocol_summary: Cytotoxicity against human NCI-H460 cells assessed as cell viability after 48 hrs by MTT assay
Format: functional
condition_context: NCI-H460, 48 h
One number for each entry, in nM.

CC(C)[C@@H]1O[C@@H](O[C@H]2CC[C@@]3(C)[C@H](CC[C@@H]4[C@@H]3CC[C@]3(C)[C@@H](C5=CC(=O)OC5)CC[C@]43O)C2)[C@H](O)[C@H](O)[C@H]1O; 6.32
CC[C@@H]1O[C@@H](O[C@H]2CC[C@@]3(C)[C@H](CC[C@@H]4[C@@H]3CC[C@]3(C)[C@@H](C5=CC(=O)OC5)CC[C@]43O)C2)CC[C@H]1O; 2.19
CC(C)[C@@H]1O[C@@H](O[C@H]2CC[C@@]3(C)[C@H](CC[C@@H]4[C@@H]3CC[C@]3(C)[C@@H](C5=CC(=O)OC5)CC[C@]43O)C2)CC[C@H]1O; 7.66
CC[C@@H]1O[C@@H](O[C@H]2CC[C@@]3(C)[C@H](CC[C@@H]4[C@@H]3CC[C@]3(C)[C@@H](C5=CC(=O)OC5)CC[C@]43O)C2)[C@H](O)[C@H](O)[C@H]1O; 2.14
C[C@@H]1O[C@@H](O[C@H]2CC[C@@]3(C)[C@H](CC[C@@H]4[C@@H]3CC[C@]3(C)[C@@H](C5=CC(=O)OC5)CC[C@]43O)C2)CC[C@H]1O [RAMNODIGIN]; 1.93
C[C@@H]1O[C@@H](O[C@H]2CC[C@@]3(C)[C@H](CC[C@@H]4[C@@H]3CC[C@]3(C)[C@@H](C5=CC(=O)OC5)CC[C@]43O)C2)[C@H](O)[C@H](O)[C@H]1O; 2.1
CCC[C@@H]1O[C@@H](O[C@H]2CC[C@@]3(C)[C@H](CC[C@@H]4[C@@H]3CC[C@]3(C)[C@@H](C5=CC(=O)OC5)CC[C@]43O)C2)[C@H](O)[C@H](O)[C@H]1O; 4.88
CC(C)C[C@@H]1O[C@@H](O[C@H]2CC[C@@]3(C)[C@H](CC[C@@H]4[C@@H]3CC[C@]3(C)[C@@H](C5=CC(=O)OC5)CC[C@]43O)C2)[C@H](O)[C@H](O)[C@H]1O; 13.4

QUERY: // lookup GI50 for CC(C)C[C@@H]1O[C@@H](O[C@H]2CC[C@@]3(C)[C@H](CC[C@@H]4[C@@H]3CC[C@]3(C)[C@@H](C5=CC(=O)OC5)CC[C@]43O)C2)CC[C@H]1O
RESULT: 8.27

// provenance: ChEMBL document CHEMBL1817593
